Molecular target: purified bovine lung sGC (Bos taurus, UniProt P16068+P19687)
Construct: screened at 100 μM against purified bovine lung sGC; purchased Enzo lifesciences ALX-202-039-C005; host or cells: bovine lung
Sequence (P19687 whole entry): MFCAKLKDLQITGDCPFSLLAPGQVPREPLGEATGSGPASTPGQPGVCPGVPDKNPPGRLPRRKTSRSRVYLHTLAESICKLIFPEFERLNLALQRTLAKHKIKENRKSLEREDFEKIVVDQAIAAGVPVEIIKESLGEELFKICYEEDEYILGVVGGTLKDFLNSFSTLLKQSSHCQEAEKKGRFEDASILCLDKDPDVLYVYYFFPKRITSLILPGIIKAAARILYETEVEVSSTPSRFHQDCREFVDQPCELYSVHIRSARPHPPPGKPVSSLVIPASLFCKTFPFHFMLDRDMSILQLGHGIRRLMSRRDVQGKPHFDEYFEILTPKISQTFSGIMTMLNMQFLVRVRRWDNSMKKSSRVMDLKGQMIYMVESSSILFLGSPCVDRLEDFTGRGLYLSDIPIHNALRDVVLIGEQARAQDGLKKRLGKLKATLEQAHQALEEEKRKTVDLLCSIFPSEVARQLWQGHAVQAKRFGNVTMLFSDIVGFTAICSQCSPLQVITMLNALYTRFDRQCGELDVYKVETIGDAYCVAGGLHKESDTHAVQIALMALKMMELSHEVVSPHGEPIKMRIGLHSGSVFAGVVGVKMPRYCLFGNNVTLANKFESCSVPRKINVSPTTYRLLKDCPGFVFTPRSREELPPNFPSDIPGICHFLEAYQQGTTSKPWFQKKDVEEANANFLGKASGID
Sequence (P16068 whole entry): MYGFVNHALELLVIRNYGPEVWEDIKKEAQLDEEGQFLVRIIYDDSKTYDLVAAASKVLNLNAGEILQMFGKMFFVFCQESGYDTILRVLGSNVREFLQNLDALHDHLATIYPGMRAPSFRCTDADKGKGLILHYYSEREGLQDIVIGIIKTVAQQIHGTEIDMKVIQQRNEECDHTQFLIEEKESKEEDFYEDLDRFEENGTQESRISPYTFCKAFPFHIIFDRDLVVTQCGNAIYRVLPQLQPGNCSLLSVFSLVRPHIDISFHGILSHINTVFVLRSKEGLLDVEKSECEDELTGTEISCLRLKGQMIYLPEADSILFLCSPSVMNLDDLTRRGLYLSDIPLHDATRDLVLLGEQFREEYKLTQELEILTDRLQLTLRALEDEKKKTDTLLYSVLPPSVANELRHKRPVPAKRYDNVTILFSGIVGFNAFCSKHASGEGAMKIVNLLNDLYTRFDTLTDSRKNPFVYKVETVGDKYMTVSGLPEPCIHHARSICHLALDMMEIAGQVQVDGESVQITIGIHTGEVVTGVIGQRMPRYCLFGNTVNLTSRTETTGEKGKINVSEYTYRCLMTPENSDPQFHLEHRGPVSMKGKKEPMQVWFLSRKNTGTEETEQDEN
Test: Soluble guanylate cyclase activity assay (cGMP radioimmunoassay)
Format: biochemical
Settings: NO 0.3 nM; GTP 1000 μM; read-out: IC50, NO-stimulated cGMP production by isolated sGC
Value type: pIC50
Formally, pIC50 is defined as -log10 of the concentration c, with c in mol/L.

### Prompt Record request: pIC50 value, item `O=[N+]([O-])c1ccc2nc(Nc3ccc(O)cc3)c(Nc3ccc(O)cc3)nc2c1`
### Response 4.48
